SYSTEM: GK (glucokinase, residues 12-465) (Homo sapiens)
Construct: I.D. No. 1 corresponds to residues 12-465 of glucokinase; made in house; host or cells: DH10b-T1r E. coli
PROCEDURE_SUMMARY: enzymatic glucokinase activity assay (ATP consumption, KinaseGlo luminescence)
Assay type: biochemical
COND: calculated maximal gain in GK enzyme activity at a saturating concentration of the compound; 5 μM ATP, 5 mM Glucose; reported as bins; read-out: % ACTmax
ENDPOINT_NAME: Emax

- MOLECULE: "O=C(Nc1ncc(F)s1)C(CC1CCOCC1)n1ncc2c(S(=O)(=O)C3CC3)cc(OC(F)F)cc21 (stereo not shown)"
  SYSTEM: "GK (glucokinase, residues 12-465) (Homo sapiens)"
  READING: "≤ 90%"
- MOLECULE: "O=C(Nc1ncc(F)s1)[C@@H](CC1CCOCC1)n1cc(S(=O)(=O)C2CCCC2)cn1 [Compound 43]"
  SYSTEM: "GK (glucokinase, residues 12-465) (Homo sapiens)"
  READING: "≤ 90%"
- MOLECULE: "N#Cc1cc(S(=O)(=O)C2CC2)c2cnn([C@@H](CC3CCOCC3)C(=O)Nc3ncc(F)s3)c2c1"
  SYSTEM: "GK (glucokinase, residues 12-465) (Homo sapiens)"
  READING: "101 to 105%"
- MOLECULE: "O=C(Nc1ncc(F)s1)C(CC1CCOCC1)n1ncc2c(S(=O)(=O)C3CC3)c(Br)ccc21 (stereo not shown)"
  SYSTEM: "GK (glucokinase, residues 12-465) (Homo sapiens)"
  READING: "≥ 111%"
- MOLECULE: "O=C(Nc1ncc(F)s1)C(CC1CCOCC1)n1ncc2c(S(=O)(=O)C3CC3)c(OC(F)F)ccc21 (stereo not shown)"
  SYSTEM: "GK (glucokinase, residues 12-465) (Homo sapiens)"
  READING: "90 to 100%"
- MOLECULE: "O=C1CC[C@H](C[C@H](C(=O)Nc2ncc(F)s2)n2cc(S(=O)(=O)C3CC3)cn2)C1"
  SYSTEM: "GK (glucokinase, residues 12-465) (Homo sapiens)"
  READING: "≤ 90%"
- MOLECULE: "O=C(Nc1ncc(F)s1)[C@H](CC1CCOCC1)n1cc(S(=O)(=O)C2CCCC2)cn1"
  SYSTEM: "GK (glucokinase, residues 12-465) (Homo sapiens)"
  READING: "≥ 111%"

====

Reported EC50 by item:
SYSTEM: GK (glucokinase, residues 12-465) (Homo sapiens, UniProt P35557)
Construct: I.D. No. 1 corresponds to residues 12-465 of glucokinase
PROCEDURE_SUMMARY: enzymatic glucokinase activity assay (ATP consumption, KinaseGlo luminescence)
COND: Kact = concentration that displays 50% of the maximal increase in GK activity; 5 μM ATP, 5 mM Glucose, 60 min, room temperature; reported as bins; read-out: pKact

- MOLECULE: "O=C(Nc1ncc(Cl)s1)C(CC1CCCC1)n1cc(S(=O)(=O)C2CC2)cn1 (centres unmarked)"
  EC50: "1.58 to 3.16 µM"
- MOLECULE: "Cc1cc(NC(=O)C(CC2CCOCC2)n2ncc3c(S(=O)(=O)C4CC4)cccc32)nn1C (centres unmarked)"
  EC50: "1.58 to 3.16 µM"
- MOLECULE: "O=C1CC[C@H](C[C@H](C(=O)Nc2cnccn2)n2ncc3c(S(=O)(=O)C4CC4)cccc32)C1"
  EC50: "0.398 to 1.26 µM"
- MOLECULE: "CC(C)(C)S(=O)(=O)c1cnn([C@@H](CC2CCOCC2)C(=O)Nc2ncc(F)s2)c1"
  EC50: "≥ 15.8 µM"
- MOLECULE: "O=C(Nc1ncc(F)s1)[C@@H](CC1CCOCC1)n1cc(S(=O)(=O)C2CCCC2)cn1 [Compound 43]"
  EC50: "≥ 15.8 µM"
- MOLECULE: "O=C(Nc1ncc(F)s1)[C@@H](CC1CCCC1)n1cc(S(=O)(=O)C2CC2)cn1"
  EC50: "≥ 15.8 µM"
- MOLECULE: "O=C(Nc1ncc(Cl)s1)[C@@H](CC1CCOCC1)n1ncc2c(S(=O)(=O)C3CC3)cccc21"
  EC50: "3.98 to 12.6 µM"
- MOLECULE: "Cc1ccc2c(cnn2C(CC2CCOCC2)C(=O)Nc2ccn(C)n2)c1S(=O)(=O)C1CC1 (centres unmarked)"
  EC50: "0.398 to 1.26 µM"

====

SYSTEM: GK (glucokinase, residues 12-465) (Homo sapiens)
Construct: I.D. No. 1 corresponds to residues 12-465 of glucokinase
Sequence (P35557 with tags, fused parts or gaps isoform P35557-2): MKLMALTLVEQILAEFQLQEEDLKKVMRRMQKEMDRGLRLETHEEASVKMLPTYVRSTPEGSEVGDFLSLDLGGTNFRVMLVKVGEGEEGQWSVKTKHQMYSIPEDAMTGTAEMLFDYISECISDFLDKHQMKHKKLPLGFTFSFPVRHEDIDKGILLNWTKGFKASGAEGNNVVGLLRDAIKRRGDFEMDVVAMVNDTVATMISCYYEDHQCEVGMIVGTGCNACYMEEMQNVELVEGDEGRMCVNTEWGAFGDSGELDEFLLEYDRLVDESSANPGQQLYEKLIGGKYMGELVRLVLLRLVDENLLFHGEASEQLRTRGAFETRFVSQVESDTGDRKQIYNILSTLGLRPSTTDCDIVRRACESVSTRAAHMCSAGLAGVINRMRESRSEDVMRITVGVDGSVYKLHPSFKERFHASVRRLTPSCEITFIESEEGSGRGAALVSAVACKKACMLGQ
PROCEDURE_SUMMARY: enzymatic glucokinase activity assay (ATP consumption, KinaseGlo luminescence)
COND: Kact = concentration that displays 50% of the maximal increase in GK activity; 5 μM ATP, 5 mM Glucose, 60 min, room temperature; reported as bins; read-out: pKact
pEC50: −log10 of the molar value.

- MOLECULE: "Cn1ccc(NC(=O)[C@@H](CC2CCOCC2)n2ncc3c(S(=O)(=O)C4CC4)cncc32)n1 [Compound 160]"
  SYSTEM: "GK (glucokinase, residues 12-465) (Homo sapiens)"
  pEC50: "4.90 to 5.40"
- MOLECULE: "Nc1cc(S(=O)(=O)C2CC2)c2cnn([C@@H](CC3CCOCC3)C(=O)Nc3ncc(F)s3)c2n1 [Compound 112]"
  SYSTEM: "GK (glucokinase, residues 12-465) (Homo sapiens)"
  pEC50: "≥ 6.50"
- MOLECULE: "O=C1CC[C@H](C[C@@H](C(=O)Nc2ncc(Cl)s2)n2ncc3c(S(=O)(=O)C4CC4)cccc32)C1 [Compound 113]"
  SYSTEM: "GK (glucokinase, residues 12-465) (Homo sapiens)"
  pEC50: "5.90 to 6.40"
- MOLECULE: "CC(C)(C)S(=O)(=O)c1cnn([C@H](CC2CCOCC2)C(=O)Nc2ncc(F)s2)c1 [Compound 52]"
  SYSTEM: "GK (glucokinase, residues 12-465) (Homo sapiens)"
  pEC50: "≤ 4.80"
- MOLECULE: "O=C(Nc1ncc(F)s1)C(CC1CCOCC1)n1ncc2c(S(=O)(=O)C3CC3)cc(OC(F)F)cc21 (stereo not shown) [Compound 143]"
  SYSTEM: "GK (glucokinase, residues 12-465) (Homo sapiens)"
  pEC50: "≥ 6.50"
- MOLECULE: "O=C(Nc1ncc(Cl)s1)[C@H](CC1CCOCC1)n1ncc2c(S(=O)(=O)C3CC3)cccc21 [Compound 64]"
  SYSTEM: "GK (glucokinase, residues 12-465) (Homo sapiens)"
  pEC50: "≥ 6.50"
- MOLECULE: "Cn1ccc(NC(=O)[C@@H](CC2CCOCC2)n2ncc3c(S(=O)(=O)C4CC4)cccc32)n1 [Compound 118]"
  SYSTEM: "GK (glucokinase, residues 12-465) (Homo sapiens)"
  pEC50: "≤ 4.80"

====

SYSTEM: GK (glucokinase, residues 12-465) (Homo sapiens)
Construct: I.D. No. 1 corresponds to residues 12-465 of glucokinase; made in house; host or cells: DH10b-T1r E. coli
PROCEDURE_SUMMARY: enzymatic glucokinase activity assay (ATP consumption, KinaseGlo luminescence)
Format: biochemical
COND: read-out: % ACTmax, calculated maximal gain in GK enzyme activity at a saturating concentration of the compound; 5 μM ATP, 5 mM Glucose; reported as bins
ENDPOINT_NAME: Emax

- MOLECULE: "Nc1cc(S(=O)(=O)C2CC2)c2cnn([C@H](CC3CCOCC3)C(=O)Nc3ncc(F)s3)c2n1 [Compound 111]"
  ENDPOINT_NAME: "Emax"
  READING: "106 to 110%"
- MOLECULE: "Cn1ccc(NC(=O)[C@H](CC2CCOCC2)n2ncc3c(S(=O)(=O)C4CC4)cccc32)n1 [Compound 119]"
  ENDPOINT_NAME: "Emax"
  READING: "90 to 100%"
- MOLECULE: "NC(=O)c1ccc(NC(=O)[C@@H](CC2CCOCC2)n2ncc3c(S(=O)(=O)C4CC4)cccc32)nc1 [Compound 108]"
  ENDPOINT_NAME: "Emax"
  READING: "≥ 111%"
- MOLECULE: "O=C(Nc1ncc(F)s1)[C@@H](CC1CCOCC1)n1ncc2c(S(=O)(=O)C3CC3)cncc21 [Compound 85]"
  ENDPOINT_NAME: "Emax"
  READING: "90 to 100%"
- MOLECULE: "O=C(Nc1ncc(Cl)s1)C(CC1CCOCC1)n1cc(NS(=O)(=O)C2CC2)cn1 (stereo not drawn) [Compound 9]"
  ENDPOINT_NAME: "Emax"
  READING: "≤ 90%"
- MOLECULE: "O=C(Nc1ncc(Cl)s1)C(CC1CCOCC1)n1cc(S(=O)(=O)C2CC2)cn1 (stereo not drawn) [Compound 4]"
  ENDPOINT_NAME: "Emax"
  READING: "101 to 105%"
- MOLECULE: "Nc1cc(S(=O)(=O)C2CC2)c2cnn(C(CC3CCOCC3)C(=O)Nc3ncc(F)s3)c2n1 (stereo not drawn) [Compound 16]"
  ENDPOINT_NAME: "Emax"
  READING: "106 to 110%"
- MOLECULE: "O=C(Nc1cnccn1)C(CC1CCOCC1)n1ncc2c(S(=O)(=O)C3CC3)cncc21 (stereo not drawn) [20 (Free Base)]"
  ENDPOINT_NAME: "Emax"
  READING: "101 to 105%"
- MOLECULE: "Nc1cc(S(=O)(=O)C2CC2)c2cnn([C@@H](CC3CCOCC3)C(=O)Nc3ncc(F)s3)c2n1 [Compound 112]"
  ENDPOINT_NAME: "Emax"
  READING: "106 to 110%"
